Attribution: ChEMBL document CHEMBL4346764

Measured Vd of individual entries
- assayOverview: Volume of distribution at steady state in Sprague-Dawley rat at 1 mg/kg, iv by LC/MS/MS analysis
- Format: ADME, organism-based
- experimentalSetup: in vivo, read-out: Vdss
Report as a plain number; the unit L/kg is understood.

compoundstructurestring=N#Cc1cccc(N2CCN(CCCCNC(=O)c3ccc(-c4ccsc4)cc3)CC2)c1 endpointlabel=Vd val=28.6

For record O=C(NCCCCN1CCN(c2cc(Cl)cc(Cl)c2)CC1)c1ccc(-c2ccsc2)cc1 the listed Vd is 55.7
